The entries below come with measured Decomposition efficiency: ratio of each glycoside/aglycon within its isoflavone family values attached.
System: Crude diglycosidase
Assay: Examination of substrate concentration in the conversion into isoflavone aglycons by diglycosidase using soybean materials;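 also: percent of the isoflavone family total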
Type: biochemical, Penicillium multicolor IAM7153
Settings: roasted soy flour, substrate concentration 5%, heat treatment of enzyme no, reaction time 1 h
All answers are understood in %, so give the number only.

[
  {
    "compound": "CC(=O)OC[C@H]1O[C@@H](Oc2ccc3c(=O)c(-c4ccc(O)cc4)coc3c2)[C@H](O)[C@@H](O)[C@@H]1O [acetyldaidzin, 6″-O-acetyldaidzin]",
    "measurement-unit": "%",
    "reported-measurement": 20.9
  }
]

From here, focus on the item given below.
Item under review: COc1cc2c(=O)c(-c3ccc(O)cc3)coc2cc1O[C@@H]1O[C@H](COC(C)=O)[C@@H](O)[C@H](O)[C@H]1O [acetylglycitin, 6″-O-acetylglycitin] . Reported Decomposition efficiency: ratio of each glycoside/aglycon within its isoflavone family?
11.8

* * *

System: Crude diglycosidase
Assay: Examination of pH in the conversion into isoflavone aglycons by diglycosidase using soybean materials
Assay type: biochemical, Penicillium multicolor IAM7153
Conditions: pH3.5, heat treatment of enzyme no, reaction time 1 h, 55° C.
readout-kind: Decomposition efficiency of glycitin family in soymilk

(I) COc1cc2c(=O)c(-c3ccc(O)cc3)coc2cc1O
(II) COc1cc2c(=O)c(-c3ccc(O)cc3)coc2cc1O[C@@H]1O[C@H](COC(=O)CC(=O)O)[C@@H](O)[C@H](O)[C@H]1O
Which gives the smaller Decomposition efficiency of glycitin family in soymilk number: I or II ? Write the label of whichever entry you select.
II
(II: 21.9, I: 78.1)

* * *

Tested on: Crude diglycosidase
Assay: Examination of pH in the conversion into isoflavone aglycons by diglycosidase using soybean materials
Format: biochemical, Penicillium multicolor IAM7153
Settings: pH6.6; heat treatment of enzyme: no; reaction time 0 h
readout-kind: Decomposition efficiency of glycitin family in defatted soybean (%)

(A) COc1cc2c(=O)c(-c3ccc(O)cc3)coc2cc1O[C@@H]1O[C@H](COC(=O)CC(=O)O)[C@@H](O)[C@H](O)[C@H]1O
(B) COc1cc2c(=O)c(-c3ccc(O)cc3)coc2cc1O
Given the two records A and B , choose the one whose Decomposition efficiency of glycitin family in defatted soybean value is lower. Response format: the label of the selected entry.
A

* * *

Test system: Crude diglycosidase
Assay: Examination of temperature in the conversion into isoflavone aglycons by diglycosidase using soybean materials
Assay type: biochemical, Penicillium multicolor IAM7153
Design: concentration or dose not given beside the values
Settings: 55 °C; heat treatment of enzyme: no; 1 h
readout-kind: Decomposition efficiency of daidzin family in soymilk (%)

[
  {
    "input-smiles": "O=c1c(-c2ccc(O)cc2)coc2cc(O)ccc12",
    "reported-measurement": 49.1
  },
  {
    "input-smiles": "O=C(O)CC(=O)OC[C@H]1O[C@@H](Oc2ccc3c(=O)c(-c4ccc(O)cc4)coc3c2)[C@H](O)[C@@H](O)[C@@H]1O",
    "reported-measurement": 50.9
  }
]

* * *

System: β-Glucosidase derived from almond
Test: Reactivity toward various isoflavone glycosides (HPLC)
Format: biochemical
Set-up: unit not given here
Settings: Reaction time 3 h; 55 °C, pH 4.0
readout-kind: glucoside

[
  {
    "input-smiles": "COc1cc2c(=O)c(-c3ccc(O)cc3)coc2cc1O[C@@H]1O[C@H](CO)[C@@H](O)[C@H](O)[C@H]1O",
    "measurement-target": "β-Glucosidase derived from almond",
    "glucoside": 98.1
  },
  {
    "input-smiles": "O=c1c(-c2ccc(O)cc2)coc2cc(O[C@@H]3O[C@H](CO)[C@@H](O)[C@H](O)[C@H]3O)ccc12",
    "measurement-target": "β-Glucosidase derived from almond",
    "glucoside": 89.2
  },
  {
    "input-smiles": "O=C(O)CC(=O)OC[C@H]1O[C@@H](Oc2cc(O)c3c(=O)c(-c4ccc(O)cc4)coc3c2)[C@H](O)[C@@H](O)[C@@H]1O",
    "measurement-target": "β-Glucosidase derived from almond",
    "glucoside": 100
  },
  {
    "input-smiles": "O=c1c(-c2ccc(O)cc2)coc2cc(O[C@@H]3O[C@H](CO)[C@@H](O)[C@H](O)[C@H]3O)cc(O)c12",
    "measurement-target": "β-Glucosidase derived from almond",
    "glucoside": 88.6
  },
  {
    "input-smiles": "COc1cc2c(=O)c(-c3ccc(O)cc3)coc2cc1O[C@@H]1O[C@H](COC(C)=O)[C@@H](O)[C@H](O)[C@H]1O",
    "measurement-target": "β-Glucosidase derived from almond",
    "glucoside": 100
  },
  {
    "input-smiles": "CC(=O)OC[C@H]1O[C@@H](Oc2cc(O)c3c(=O)c(-c4ccc(O)cc4)coc3c2)[C@H](O)[C@@H](O)[C@@H]1O",
    "measurement-target": "β-Glucosidase derived from almond",
    "glucoside": 100
  }
]
